Please go through the items and note down their log10 of IC50.
system: Aspergillus fumigatus; test: Antifungal activity against Aspergillus fumigatus Af293 after 48 hrs by EUCAST-based microdilution assay; format: functional, organism-based; details: Af293, 48 h
Scale: log10; quantity: IC50; unit before log: µg/mL

In the examples that follow, each entry is paired with its recorded log10 of IC50.
- structure: "CC[C@@H]1/C=C(\\C)C[C@H](C)C[C@H](OC)[C@H]2O[C@@](O)(C(=O)C(=O)N3CCCC[C@H]3C(=O)O[C@H](/C(C)=C/[C@@H]3CC[C@@H](O)[C@H](O)C3)[C@H](C)[C@@H](O)CC1=O)[C@H](C)C[C@@H]2OC"
  log10 of IC50: 1.09
- structure: "CO[C@H]1C[C@@H](C)C/C(C)=C/[C@@H](C)C(=O)C[C@H](O)[C@@H](C)[C@@H](/C(C)=C/[C@@H]2CC[C@@H](O)[C@H](OC)C2)OC(=O)[C@@H]2CCCCN2C(=O)C[C@]2(O)O[C@H]1[C@@H](OC)C[C@H]2C"
  log10 of IC50: 2.36
- structure: "CC[C@@H]1/C=C(\\C)C[C@H](C)C[C@H](OC)[C@H]2O[C@@](O)(CC(=O)N3CCCC[C@H]3C(=O)O[C@H](/C(C)=C/[C@@H]3CC[C@@H](O)[C@H](O)C3)[C@H](C)[C@@H](O)CC1=O)[C@H](C)C[C@@H]2OC"
  log10 of IC50: 2.49

Dear colleague, could you please provide log10 of IC50 for the compounds listed below?
1. CCC[C@@H]1/C=C(\C)C[C@H](C)C[C@H](OC)[C@H]2O[C@@](O)(CC(=O)N3CCCC[C@H]3C(=O)O[C@H](/C(C)=C/[C@@H]3CC[C@@H](O)[C@H](OC)C3)[C@H](C)[C@@H](O)CC1=O)[C@H](C)C[C@@H]2OC
2. CCC[C@@H]1/C=C(\C)C[C@H](C)C[C@H](OC)[C@H]2O[C@@](O)(C(=O)C(=O)N3CCCC[C@H]3C(=O)O[C@H](/C(C)=C/[C@@H]3CC[C@@H](O)[C@H](O)C3)[C@H](C)[C@@H](O)CC1=O)[C@H](C)C[C@@H]2OC
3. CC[C@@H]1/C=C(\C)C[C@H](C)C[C@H](OC)[C@H]2O[C@@](O)(CC(=O)N3CCCC[C@H]3C(=O)O[C@H](/C(C)=C/[C@@H]3CC[C@@H](O)[C@H](OC)C3)[C@H](C)[C@@H](O)CC1=O)[C@H](C)C[C@@H]2OC

Output:
1. 1.15
2. -0.38
3. 0.89

---

system: Aspergillus fumigatus; assay: Antifungal activity against Aspergillus fumigatus Af293 after 48 hrs by EUCAST-based microdilution assay; assay type: functional, organism-based; conditions: Af293, 48 h
assay readout: IC50

- structure: "CO[C@H]1C[C@@H](C)C/C(C)=C/[C@@H](C)C(=O)C[C@H](O)[C@@H](C)[C@@H](/C(C)=C/[C@@H]2CC[C@@H](O)[C@H](O)C2)OC(=O)[C@@H]2CCCCN2C(=O)C[C@]2(O)O[C@H]1[C@@H](OC)C[C@H]2C"
  IC50: "> 50 µg/mL"

Dear colleague, could you please provide IC50 for the molecules listed below?
1. CCC[C@@H]1/C=C(\C)C[C@H](C)C[C@H](OC)[C@H]2O[C@@](O)(CC(=O)N3CCCC[C@H]3C(=O)O[C@H](/C(C)=C/[C@@H]3CC[C@@H](O)[C@H](O)C3)[C@H](C)[C@@H](O)CC1=O)[C@H](C)C[C@@H]2OC
2. C=CC[C@@H]1/C=C(\C)C[C@H](C)C[C@H](OC)[C@H]2O[C@@](O)(CC(=O)N3CCC[C@H]3C(=O)O[C@H](/C(C)=C/[C@@H]3CC[C@@H](O)[C@H](O)C3)[C@H](C)[C@@H](O)CC1=O)[C@H](C)C[C@@H]2OC

Output:
> 50 µg/mL
> 50 µg/mL
